system: MDA-MB-361; test: cells; format: functional, cell-based, Homo sapiens; conditions: Homo sapiens, MDA-MB-361
pIC50: −log10 of the molar value.
Answer each item with its documented pIC50.

What the record says about CN(C)C(=N)NC(=N)N : pIC50 is < 1.70

What the record says about C=C(c1ccc(C(=O)O)cc1)c1cc2c(cc1C)C(C)(C)CCC2(C)C : pIC50 is < 5.10

What the record says about COc1cc2c(Nc3ccc(NC(=O)c4ccccc4)cc3)ncnc2cc1OCCCN1CCOCC1 : pIC50 is < 5.40

What the record says about CC(C)CCN1c2nc(Nc3cc(F)c(O)c(F)c3)ncc2N(C)C(=O)C1C (centres undefined) : pIC50 is < 5.30
